- Experimental system: recombinant RORγ Ligand Binding Domain (LBD) protein (Homo sapiens (Human), UniProt P51449)
- Sequence (P51449 269-508): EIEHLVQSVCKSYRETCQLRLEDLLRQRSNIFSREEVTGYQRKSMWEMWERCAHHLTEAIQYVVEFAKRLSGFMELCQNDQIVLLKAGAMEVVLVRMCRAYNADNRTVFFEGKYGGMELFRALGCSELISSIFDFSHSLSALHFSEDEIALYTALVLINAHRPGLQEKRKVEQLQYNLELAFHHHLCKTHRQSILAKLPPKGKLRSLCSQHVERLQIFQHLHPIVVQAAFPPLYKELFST
- Test method notes: Radio-Ligand RORγ Binding Assay (Assay 1)
- Condition notes: competition with 25-hydroxy [26,27-3H]-cholesterol, SPA; Table 9; read-out: RORγ Binding Ki Range*
pKi: −log10 of the molar value.
Entries annotated with measured pKi

## Input Which pKi value is on record for CC(C)[C@H]1c2nc(C(=O)NCc3ccc(S(C)(=O)=O)cc3)sc2CN1Cc1ncc(Cl)cn1 ?
## Output 6.00 to 7.00

## Input Check CCS(=O)(=O)c1ccc(CC(=O)Nc2nc3c(s2)CN([C@H](C)c2c(F)cc(Cl)cc2F)[C@H]3C(C)C)cc1 too.
## Output > 7.00

---
## Input Which pKi value is on record for CCS(=O)(=O)c1cnc(CC(=O)Nc2nc3c(s2)CN(Cc2ccc(Cl)cc2)[C@H]3C(C)C)nc1 ?
## Output > 7.00

## Input Check CC(C)[C@H]1c2nc(NC(=O)Cc3ccc(S(C)(=O)=O)cc3)sc2CN1[C@@H](C)c1ccc(Cl)cn1 (single isomer, unassigned) too.
## Output > 7.00

## Input Check CCS(=O)(=O)c1ccc(CC(=O)Nc2nc3c(s2)CN(CC2CCC(F)(F)CC2)[C@H]3C(C)C)cc1 too.
## Output > 7.00

## Input Check CC(C)[C@H]1c2nc(C(=O)NCc3ccc(S(C)(=O)=O)cc3)sc2CN1Cc1ccc2nn[nH]c2c1 too.
## Output 6.00 to 7.00

## Input Check CCS(=O)(=O)c1ccc(CC(=O)Nc2nc3c(s2)CN(C[C@H]2CC[C@H](C(F)(F)F)CC2)[C@H]3C(C)C)nc1 (single isomer, unassigned) too.
## Output > 7.00

## Input Check CCS(=O)(=O)c1ccc(CC(=O)Nc2nc3c(s2)CN(C[C@H]2CC[C@](C)(C#N)CC2)[C@H]3C(C)C)cc1 (single isomer, unassigned) too.
## Output > 7.00

---

- Experimental system: full-length RORγt in Jurkat cells (Homo sapiens (Human))
- Sequence (P51449 other isoform, or with tags, fused parts or gaps): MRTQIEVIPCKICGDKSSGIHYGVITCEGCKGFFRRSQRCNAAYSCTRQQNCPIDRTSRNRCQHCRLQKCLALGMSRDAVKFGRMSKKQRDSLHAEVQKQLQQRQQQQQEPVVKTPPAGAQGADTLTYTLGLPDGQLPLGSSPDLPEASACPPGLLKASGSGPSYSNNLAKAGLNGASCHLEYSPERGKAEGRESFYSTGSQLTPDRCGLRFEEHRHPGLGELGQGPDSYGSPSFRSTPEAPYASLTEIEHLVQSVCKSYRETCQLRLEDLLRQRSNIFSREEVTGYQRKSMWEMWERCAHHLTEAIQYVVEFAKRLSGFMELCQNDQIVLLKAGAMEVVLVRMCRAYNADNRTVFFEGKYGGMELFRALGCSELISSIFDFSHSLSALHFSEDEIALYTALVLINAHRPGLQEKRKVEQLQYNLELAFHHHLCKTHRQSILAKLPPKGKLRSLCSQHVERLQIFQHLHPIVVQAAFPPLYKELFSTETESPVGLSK
- Test method notes: RORγt 5xRORE Assay in Jurkat Cells (Assay 2)
- Type: cell-based
- Condition notes: Nanoluc luciferase reporter, 16-18 hrs, Table 8, read-out: RORγt5X IC50 Range*
Entries annotated with measured IC50

Examples from the recorded data:
## Input Which IC50 value is on record for CCS(=O)(=O)c1ccc(CC(=O)Nc2nc3c(s2)CN(Cc2ccc(F)cc2)[C@H]3C(C)C)cc1 ?
## Output > 1000 nM

## Input Check CCS(=O)(=O)c1ccc(CC(=O)Nc2nc3c(s2)CN(Cc2ccc(C(F)(F)F)c(OC)n2)[C@H]3C(C)C)cc1 too.
## Output < 100 nM

## Input Check CCS(=O)(=O)c1ccc(CC(=O)Nc2nc3c(s2)CN(Cc2ccc(C(F)(F)F)cc2)[C@H]3C(C)C)cc1 too.
## Output < 100 nM

---
## Input Which IC50 value is on record for CCS(=O)(=O)c1ccc(CC(=O)Nc2nc3c(s2)CN([C@@H](C)c2ccc(Cl)cc2F)[C@H]3C(C)C)cc1 ?
## Output < 100 nM

## Input Check CCS(=O)(=O)c1ccc(CC(=O)Nc2nc3c(s2)CN(Cc2nnc(C(F)(F)F)o2)[C@H]3C(C)C)cc1 too.
## Output > 1000 nM

## Input Check CCS(=O)(=O)c1ccc(CC(=O)Nc2nc3c(s2)CN([C@H](C)c2ccc(C(F)(F)F)cc2)[C@H]3C(C)C)cc1 too.
## Output < 100 nM

## Input Check CC(C)[C@H]1c2nc(NC(=O)Cc3ccc(C#N)cc3)sc2CN1Cc1ccc(Cl)cc1 [I-E1] too.
## Output 100 to 1000 nM

## Input Check CCS(=O)(=O)c1ccc(CC(=O)Nc2nc3c(s2)CN(C[C@@H]2CC[C@@H](C(F)(F)F)OC2)[C@H]3C(C)C)cc1 too.
## Output < 100 nM

## Input Check CCS(=O)(=O)c1ccc(CC(=O)Nc2nc3c(s2)CN([C@@H](C)c2ccc(C(F)(F)F)cc2)[C@H]3C(C)C)cc1 too.
## Output < 100 nM

## Input Check CCS(=O)(=O)c1ccc(CC(=O)Nc2nc3c(s2)CN(Cc2ccc(-c4ccn(C)c(=O)c4)cc2)[C@H]3C(C)C)cc1 too.
## Output < 100 nM
